EXPERIMENT NOTES: chemical genetic growth profiling, strain panel (AID 1159580);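 further: tested at 20 µM; growth read once vehicle control cultures reached saturation at 30 °C; 1 = growth at the plate median or of vehicle wells; lower values mean less growth of the strain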
MEASUREMENT PARAMETERS: S. cerevisiae deletion strains, growth OD, locus YOR069W, strain VPS5, active compounds read low
Among all 5,500 compounds or so, about 2,000 (36%) were called active. Another 18% or so got no clear call; they are omitted. The list shows a part of the results.
RESULT TYPE: normalized growth
Write the value as a bare number.

CC[C@H](C)C(=O)O[C@H]1C[C@@H](C)C=C2C=C[C@H](C)[C@H](CC[C@@H]3C[C@@H](O)CC(=O)O3)[C@H]21 ... 0.981
C=C1CCC(OC(C)=O)/C(C)=C/C[C@@H]2[C@@H]1CC2(C)C (stereo not given in full) ... 1.01
O=c1[nH]oc2c1CCNC2 ... 0.993
CCC(C)(C)C(=O)O[C@H]1C[C@@H](C)C=C2C=C[C@H](C)[C@H](CC[C@@H]3C[C@@H](O)CC(=O)O3)[C@H]21 ... 0.998

So what does the record say about normalized growth for CO/N=C(\C(=O)N[C@@H]1C(=O)N2C(C(=O)O)=C(COC(C)=O)CS[C@H]12)c1csc(N)n1 ?
0.988

And O=C(O)c1cc2cc(Cc3cccnc3)ccc2o1 ?
1

Now this one: Clc1cccc(Cl)c1NC1=NCCN1
1.01

C=C1CCC(=O)C(C)CCC2C1CC2(C)C (stereo not given) , same question.
1.02

Another compound to look at: CC(C)C(=O)Nc1ccc([N+](=O)[O-])c(C(F)(F)F)c1
0.99

Item: O=C(Cn1ccnc1[N+](=O)[O-])NCCO
1.01

Also COc1cc([C@@H]2c3cc4c(c(O)c3C[C@H]3COC(=O)[C@@H]32)OCO4)cc(OC)c1OC ?
0.992

Follow-up entry: Cc1ccc(C)c(OCCCC(C)(C)C(=O)O)c1
0.971

Now consider COc1c(OC)c2occc2c2oc(=O)ccc12 and answer again.
0.968

Moving on to the next compound: CC[C@H](C)C(=O)O[C@H]1CCC=C2C=C[C@H](C)C(CCC3C[C@@H](O)CC(=O)O3)[C@H]21 (stereo not given in full)
0.981

Ok, now C[C@@H]1C(=O)OC2[C@H](O)C34[C@@H]5OC(=O)[C@@]3(O[C@@H]3OC(=O)[C@H](O)[C@@]34[C@H](C(C)(C)C)[C@H]5O)[C@]21O (stereo not given in full)
0.997

What would you report for C=C1C(=O)O[C@@H]2C3O[C@]3(C)CC/C=C(\C)CC[C@@H]12 (stereo not given in full) ?
0.935

How about this compound: CC1(C)NC(=O)N(c2ccc([N+](=O)[O-])c(C(F)(F)F)c2)C1=O
1.01

Same for Cc1cc(-c2ccccc2)nnc1NCCN1CCOCC1
1.01

Likewise for C=C1C(=O)OC2CC1C(OC(C)=O)C/C(C)=C/CC/C(C)=C/CC[C@]2(C)O (stereo not given in full) ?
1.01

What do we get for CO/N=C(\C(=O)N[C@@H]1C(=O)N2C(C(=O)O)=C(CSc3nc(=O)c(O)nn3C)CS[C@H]12)c1csc(N)n1 ?
0.988

---

EXPERIMENT NOTES: chemical genetic growth profiling, strain panel (AID 1159580);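 further: tested at 20 µM; growth read once vehicle control cultures reached saturation at 30 °C; 1 = growth at the plate median or of vehicle wells; lower values mean less growth of the strain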
MEASUREMENT PARAMETERS: S. cerevisiae deletion strains, growth OD, locus YOR136W, strain idh2, active compounds read low
Screen size: about 5,500 compounds; about 2,000 (36%) were called active. Not shown: some 18% with an inconclusive outcome. This is one part of the list.
Recorded normalized growth by entry
Output: the number by itself.

Would you please look over these solved cases?
CC(=O)OC1CCC2(C)C(=CC=C3C2CCC2(C)C3CCC2C(C)/C=C/C(C)C(C)C)C1(C)C (stereo not given) ... 0.987
CC(C)NNC(=O)c1ccncc1 ... 1.02
CC(C)NC[C@H](O)COc1cccc2ccccc12 ... 1.03

Recorded normalized growth for CC[N+](CC)(CC)CCOc1cccc(OCC[N+](CC)(CC)CC)c1OCC[N+](CC)(CC)CC , please?
1

What do you get for CC(C)C(C)/C=C/C(C)[C@H]1CCC2C3=CCC4CC(=O)CC[C@]4(C)C3CC[C@@]21C (stereo not given in full) ?
1
